# Organism: Homo sapiens
# ASSAY_REMARKS: Inhibition of transglutaminase in human keratinocytes assessed as mean transglutaminase activity level at 4.1 10^-8M in presence of 10 uM retinal relative to retinal alone
# Assay type: cell-based
# Set-up: scale not given: the % may be the effect or the level left
Below, each entry is listed alongside its reported Activity.
Give your result in % as a bare value.

Look over these answered cases.
# SMILES_NOTATION, UNITS_SYMBOL, RECORDED_RESULT
data = [
    ("CCCCCCCC/C=C\\CCCCCCCCCCCCCC(=O)N[C@@H](COP(=O)([O-])OCC[N+](C)(C)C)[C@H](O)/C=C/CCCCCCCCCCCCC", "%", 74.6),
    ("CC1(C)[C@@H](O)CC[C@]2(C)[C@H]3C(=O)C=C4[C@@H]5C[C@@](C)(C(=O)O)CC[C@]5(C)CC[C@@]4(C)[C@]3(C)CC[C@@H]12", "%", 93),
    ("COc1cc(NS(C)(=O)=O)ccc1Nc1c2ccccc2nc2ccccc12", "%", 110),
]

Let us move to another entry and its Activity.
Fill in the blank: the reported Activity of CC1(C)[C@@H](OC(=O)CCC(=O)O)CC[C@]2(C)[C@H]3C(=O)C=C4[C@@H]5C[C@@](C)(C(=O)O)CC[C@]5(C)CC[C@@]4(C)[C@]3(C)CC[C@@H]12 is ____. 135

---

# TARGET_ENTITY: Lecithin retinol acyltransferase (Bos taurus)
# ASSAY_REMARKS: Inhibition of LRAT in bovine RPE microsomes at 10 uM using retinol substrate in presence of Palmitoyl-CoA incubated for 5 mins by HPLC analysis relative to control
Outcome label depends on inhibition relative to 20%: at/above gives Satisfied, below gives Not satisfied.

# COMPOUND, ASSIGNED_LABEL
rows = [
    ("CC(C)=CCCC(C)=CCCC(C)=CCO", "Not satisfied"),
    ("CC(/C=C/C=C(\\C)C(=O)O)=C\\C=C\\C=C(C)\\C=C\\C=C(/C)C(=O)O", "Not satisfied"),
    ("C=CCCC(=O)/C=C/C1C(C)=CCCC1(C)C (centres undefined)", "Not satisfied"),
    ("C/C=C/C(=O)C1C(C)C=CCC1(C)C (centres undefined)", "Satisfied"),
    ("CC(C)=CCC/C(C)=C/CC/C(C)=C/CC/C(C)=C/CO", "Not satisfied"),
]

API: above_or_equal(metric=inhibition, cutoff=20%) for item C/C=C/C(=O)C1=C(C)C=CCC1(C)C Satisfied

API: above_or_equal(metric=inhibition, cutoff=20%) for item C/C=C\C(=O)C1C(C)=CCCC1(C)C (centres undefined) Satisfied

API: above_or_equal(metric=inhibition, cutoff=20%) for item CCCCC/C=C\C/C=C\CCCCCCCC(=O)N(CCO)CCO Not satisfied

---

# Organism: Homo sapiens
# ASSAY_REMARKS: Inhibition of transglutaminase in human keratinocytes assessed as mean transglutaminase activity level at 8.2 10^-8M in presence of 10 uM retinal relative to retinal alone
# Type: cell-based
# Design: scale not given: the % may be the effect or the level left
Below, each entry is listed alongside its reported Activity.
Give your result in % as a bare value.

Look over these answered cases.
# SMILES_NOTATION, PROPERTY, UNITS_SYMBOL, RECORDED_RESULT
rows = [
    ("CC1(C)[C@@H](O)CC[C@]2(C)[C@H]3C(=O)C=C4[C@@H]5C[C@@](C)(C(=O)O)CC[C@]5(C)CC[C@@]4(C)[C@]3(C)CC[C@@H]12", "Activity", "%", 225),
    ("CCCCCCCC/C=C\\CCCCCCCCCCCCCC(=O)N[C@@H](COP(=O)([O-])OCC[N+](C)(C)C)[C@H](O)/C=C/CCCCCCCCCCCCC", "Activity", "%", 115),
    ("COc1cc(NS(C)(=O)=O)ccc1Nc1c2ccccc2nc2ccccc12", "Activity", "%", 131),
]

Let us move to another entry and its Activity.
Fill in the blank: the reported Activity of CC1(C)[C@@H](OC(=O)CCC(=O)O)CC[C@]2(C)[C@H]3C(=O)C=C4[C@@H]5C[C@@](C)(C(=O)O)CC[C@]5(C)CC[C@@]4(C)[C@]3(C)CC[C@@H]12 is ____. 112

---

# Species on record: Homo sapiens
# ASSAY_REMARKS: Inhibition of transglutaminase in human keratinocytes assessed as mean transglutaminase activity level at 1.1 10^-6M in presence of 10 uM retinal relative to retinal alone
# Type: cell-based
# Set-up: scale not given: the % may be the effect or the level left
PROPERTY: Activity
# output: numeric value plus its unit

# SMILES_NOTATION, RECORDED_RESULT
measured = [
    ("CCCCCCCC/C=C\\CCCCCCCCCCCCCC(=O)N[C@@H](COP(=O)([O-])OCC[N+](C)(C)C)[C@H](O)/C=C/CCCCCCCCCCCCC", "98.8%"),
]

Fill in the blank: the reported Activity of COc1cc(NS(C)(=O)=O)ccc1Nc1c2ccccc2nc2ccccc12 is ____. 84%

Fill in the blank: the reported Activity of CC1(C)[C@@H](O)CC[C@]2(C)[C@H]3C(=O)C=C4[C@@H]5C[C@@](C)(C(=O)O)CC[C@]5(C)CC[C@@]4(C)[C@]3(C)CC[C@@H]12 is ____. 96.4%

Fill in the blank: the reported Activity of CC1(C)[C@@H](OC(=O)CCC(=O)O)CC[C@]2(C)[C@H]3C(=O)C=C4[C@@H]5C[C@@](C)(C(=O)O)CC[C@]5(C)CC[C@@]4(C)[C@]3(C)CC[C@@H]12 is ____. 158%

---

# Species on record: Homo sapiens
# ASSAY_REMARKS: Inhibition of transglutaminase in human keratinocytes assessed as mean transglutaminase activity level at 1.0 10^-3M in presence of 10 uM retinal relative to retinal alone
# Type: cell-based
# Set-up: scale not given: the % may be the effect or the level left
Below, each entry is listed alongside its reported Activity.

# SMILES_NOTATION, PROPERTY, RECORDED_RESULT
measured = [
    ("CCCCC/C=C\\C/C=C\\CCCCCCCC(=O)O", "Activity", "-16.4%"),
    ("CCCCCCCCCCCCCC(=O)O", "Activity", "-2%"),
    ("CC(C)CCCCCCCCCCCCCCC(=O)O", "Activity", "-8.6%"),
    ("CCCCCCCC/C=C/CCCCCCCC(=O)O", "Activity", "12.8%"),
]

Fill in the blank: the reported Activity of CC/C=C\C/C=C\C/C=C\CCCCCCCC(=O)O is ____. -7.5%

---

# Organism: Homo sapiens
# ASSAY_REMARKS: Inhibition of transglutaminase in human keratinocytes assessed as mean transglutaminase activity level at 1.65 10^-7M in presence of 10 uM retinal relative to retinal alone
# Format: cell-based
# Design: scale not given: the % may be the effect or the level left
Below, each entry is listed alongside its reported Activity.
Give your result in % as a bare value.

# COMPOUND, PROPERTY, UNITS_SYMBOL, RECORDED_RESULT
data = [
    ("COc1cc(C=O)ccc1O", "Activity", "%", 80),
    ("O=C(O)CCCCCCCCCCCCCCC(=O)O", "Activity", "%", 95),
    ("CCCCC/C=C\\C/C=C\\CCCCCCCC(=O)O", "Activity", "%", 106),
]

Fill in the blank: the reported Activity of CC/C=C\C/C=C\C/C=C\CCCCCCCC(=O)O is ____. 77

Fill in the blank: the reported Activity of CCCCCCCC/C=C/CCCCCCCC(=O)O is ____. 58

---

# Species on record: Homo sapiens
# ASSAY_REMARKS: Inhibition of transglutaminase in human keratinocytes assessed as mean transglutaminase activity level at 3.73 10^-4M in presence of 10 uM retinal relative to retinal alone
# Assay type: cell-based
# Design: scale not given: the % may be the effect or the level left
Below, each entry is listed alongside its reported Activity.
Give your result in % as a bare value.

Look over these answered cases.
# COMPOUND, PROPERTY, RECORDED_RESULT
records = [
    ("CC(C)CCCCCCCCCCCCCCC(=O)O", "Activity", -5.3),
    ("CCCCCCCC/C=C/CCCCCCCC(=O)O", "Activity", 13.8),
    ("CCCCCCCCCCCCCCCCC(O)C(=O)O (centres undefined)", "Activity", 69.3),
]

Let us move to another entry and its Activity.
Fill in the blank: the reported Activity of CCCCC/C=C\C/C=C\CCCCCCCC(=O)O is ____. 79.2

---

# Species: Homo sapiens
# ASSAY_REMARKS: Inhibition of transglutaminase in human keratinocytes assessed as mean transglutaminase activity level at 8.2 10^-6M in presence of 10 uM retinal relative to retinal alone
# Type: cell-based
# Design: scale not given: the % may be the effect or the level left
PROPERTY: Activity (%)
Give your result in % as a bare value.

Look over these answered cases.
# SMILES_NOTATION, UNITS_SYMBOL, Activity
measured = [
    ("CCCCC/C=C\\C/C=C\\CCCCCCCC(=O)O", "%", 146),
    ("O=C(O)CCCCCCCCCCCCCCC(=O)O", "%", 114),
]

Let us move to another entry and its Activity.
Fill in the blank: the reported Activity of COc1cc(C=O)ccc1O is ____. 109
